Values from ChEMBL document CHEMBL1828613

Molecular target: Histone-lysine N-methyltransferase EHMT2 (Homo sapiens, UniProt Q96KQ7)
Sequence (Q96KQ7 whole entry): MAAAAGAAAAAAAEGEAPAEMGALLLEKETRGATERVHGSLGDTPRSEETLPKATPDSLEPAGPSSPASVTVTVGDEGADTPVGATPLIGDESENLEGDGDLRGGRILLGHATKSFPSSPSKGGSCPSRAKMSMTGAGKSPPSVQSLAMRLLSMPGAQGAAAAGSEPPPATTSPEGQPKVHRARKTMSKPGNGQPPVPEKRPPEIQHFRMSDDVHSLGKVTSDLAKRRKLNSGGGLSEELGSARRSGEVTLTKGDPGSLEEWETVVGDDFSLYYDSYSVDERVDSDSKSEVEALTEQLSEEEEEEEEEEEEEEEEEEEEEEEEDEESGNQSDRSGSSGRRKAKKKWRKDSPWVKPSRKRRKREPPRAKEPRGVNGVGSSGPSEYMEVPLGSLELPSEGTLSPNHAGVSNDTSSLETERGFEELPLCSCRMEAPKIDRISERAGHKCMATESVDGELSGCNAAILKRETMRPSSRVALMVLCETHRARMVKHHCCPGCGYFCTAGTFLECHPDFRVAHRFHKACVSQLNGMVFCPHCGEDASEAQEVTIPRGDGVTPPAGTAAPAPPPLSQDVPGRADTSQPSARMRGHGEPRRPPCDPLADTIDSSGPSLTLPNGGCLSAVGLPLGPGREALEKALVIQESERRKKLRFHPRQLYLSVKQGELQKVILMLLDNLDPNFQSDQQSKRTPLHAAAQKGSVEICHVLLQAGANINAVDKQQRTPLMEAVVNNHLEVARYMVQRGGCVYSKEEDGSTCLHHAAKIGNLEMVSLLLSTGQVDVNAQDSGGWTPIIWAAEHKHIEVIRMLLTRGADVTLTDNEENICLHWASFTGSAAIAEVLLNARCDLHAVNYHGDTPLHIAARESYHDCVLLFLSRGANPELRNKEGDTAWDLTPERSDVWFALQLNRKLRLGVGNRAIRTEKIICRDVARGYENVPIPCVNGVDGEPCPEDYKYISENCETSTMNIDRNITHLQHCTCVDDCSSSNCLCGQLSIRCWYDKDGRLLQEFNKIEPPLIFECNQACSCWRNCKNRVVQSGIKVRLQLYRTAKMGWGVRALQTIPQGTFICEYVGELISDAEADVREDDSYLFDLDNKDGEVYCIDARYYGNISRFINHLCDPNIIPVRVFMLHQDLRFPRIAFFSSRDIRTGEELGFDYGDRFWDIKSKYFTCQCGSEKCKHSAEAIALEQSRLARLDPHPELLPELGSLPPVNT
Assay: Inhibition of G9a in human PC3 cells assessed as reduction of H3K9me2 after 48 hrs by In-Cell Western assay
Type: cell-based, PC-3
experimentalEndpoint: IC50 (nM)
Provide the reading as a plain figure in nM.

query: GET /values?readout=IC50&item= `COc1cc2c(NC3CCN(CC4CCCCC4)CC3)nc(N3CCCN(C(C)C)CC3)nc2cc1OCCCN1CCCCC1`
result: 26

====

System: IMR-90
Assay: Cytotoxicity against human IMR90 cells assessed as cell viability after 48 hrs by MTT assay
Assay type: cell-based
Settings: IMR-90, 48 h
experimentalEndpoint: EC50 (µM)
Output spec: scalar in µM, unitless text.

query: # lookup: EC50 of `COc1cc2c(NC3CCN(C(C)C)CC3)nc(C3CCCCC3)nc2cc1OCCCN1CCCC1`
result: 2.3
